Molecular target: KDR (human, UniProt P35968 20-1356)
Sequence (P35968 20-1356): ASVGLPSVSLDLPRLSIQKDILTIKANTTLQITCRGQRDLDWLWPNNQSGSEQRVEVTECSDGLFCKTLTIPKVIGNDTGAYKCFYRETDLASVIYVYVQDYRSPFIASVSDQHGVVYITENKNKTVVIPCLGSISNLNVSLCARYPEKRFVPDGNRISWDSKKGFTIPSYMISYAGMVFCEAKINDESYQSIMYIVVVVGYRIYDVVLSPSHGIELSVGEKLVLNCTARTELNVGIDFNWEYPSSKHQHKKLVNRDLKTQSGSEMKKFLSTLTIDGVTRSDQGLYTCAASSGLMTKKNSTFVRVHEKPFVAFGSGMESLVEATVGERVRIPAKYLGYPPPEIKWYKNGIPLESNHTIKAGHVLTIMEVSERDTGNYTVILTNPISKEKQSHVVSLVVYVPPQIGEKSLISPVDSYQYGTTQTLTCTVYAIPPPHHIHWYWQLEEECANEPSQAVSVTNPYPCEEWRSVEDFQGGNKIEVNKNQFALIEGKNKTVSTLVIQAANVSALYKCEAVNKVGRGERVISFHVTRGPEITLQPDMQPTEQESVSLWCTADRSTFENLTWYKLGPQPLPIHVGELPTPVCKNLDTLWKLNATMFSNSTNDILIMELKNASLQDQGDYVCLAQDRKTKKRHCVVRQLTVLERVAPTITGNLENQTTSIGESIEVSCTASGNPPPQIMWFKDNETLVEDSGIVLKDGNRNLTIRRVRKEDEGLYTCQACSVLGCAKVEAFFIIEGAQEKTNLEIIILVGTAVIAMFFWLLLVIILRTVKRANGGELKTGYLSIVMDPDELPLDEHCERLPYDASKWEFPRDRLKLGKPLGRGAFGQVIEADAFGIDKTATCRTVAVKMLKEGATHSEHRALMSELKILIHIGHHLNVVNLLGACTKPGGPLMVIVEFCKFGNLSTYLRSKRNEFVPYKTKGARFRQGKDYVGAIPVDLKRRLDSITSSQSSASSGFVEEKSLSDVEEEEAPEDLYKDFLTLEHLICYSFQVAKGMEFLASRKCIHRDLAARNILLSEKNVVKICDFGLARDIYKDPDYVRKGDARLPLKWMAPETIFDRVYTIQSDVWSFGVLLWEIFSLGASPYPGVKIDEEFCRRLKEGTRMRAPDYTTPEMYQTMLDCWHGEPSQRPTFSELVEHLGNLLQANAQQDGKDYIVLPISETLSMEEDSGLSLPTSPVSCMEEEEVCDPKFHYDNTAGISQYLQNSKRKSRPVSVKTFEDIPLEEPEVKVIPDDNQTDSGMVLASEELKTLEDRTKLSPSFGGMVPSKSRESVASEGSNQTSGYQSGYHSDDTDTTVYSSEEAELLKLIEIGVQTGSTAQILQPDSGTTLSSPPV
Assay: cell-based or functional assay
Below, each of the binders is paired with its reported Activity at 133 nM (% Inhibition), 24-hour Pre-incubation at 37° C., Average value.
value_kind: Activity at 133 nM (% Inhibition), 24-hour Pre-incubation at 37° C., Average (%)

30D7 (antibody, V domains shown) VH: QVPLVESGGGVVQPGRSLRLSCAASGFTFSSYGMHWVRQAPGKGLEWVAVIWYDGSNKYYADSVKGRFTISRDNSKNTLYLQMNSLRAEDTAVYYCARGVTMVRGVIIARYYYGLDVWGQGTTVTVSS VL: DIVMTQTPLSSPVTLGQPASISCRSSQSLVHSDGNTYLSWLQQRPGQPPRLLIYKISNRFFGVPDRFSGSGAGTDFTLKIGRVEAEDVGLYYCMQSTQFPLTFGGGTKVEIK
38
24C9 (antibody, V domains shown) VH: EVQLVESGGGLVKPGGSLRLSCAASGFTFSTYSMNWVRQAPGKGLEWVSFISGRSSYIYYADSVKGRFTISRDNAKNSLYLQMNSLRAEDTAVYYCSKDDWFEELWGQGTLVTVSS VL: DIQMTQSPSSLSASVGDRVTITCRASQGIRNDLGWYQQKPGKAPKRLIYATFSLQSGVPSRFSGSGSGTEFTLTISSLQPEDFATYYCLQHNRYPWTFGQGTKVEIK
46
